- target_entity: MAP2K1 (human) (UniProt Q02750)
- Sequence (Q02750 whole entry, looked up): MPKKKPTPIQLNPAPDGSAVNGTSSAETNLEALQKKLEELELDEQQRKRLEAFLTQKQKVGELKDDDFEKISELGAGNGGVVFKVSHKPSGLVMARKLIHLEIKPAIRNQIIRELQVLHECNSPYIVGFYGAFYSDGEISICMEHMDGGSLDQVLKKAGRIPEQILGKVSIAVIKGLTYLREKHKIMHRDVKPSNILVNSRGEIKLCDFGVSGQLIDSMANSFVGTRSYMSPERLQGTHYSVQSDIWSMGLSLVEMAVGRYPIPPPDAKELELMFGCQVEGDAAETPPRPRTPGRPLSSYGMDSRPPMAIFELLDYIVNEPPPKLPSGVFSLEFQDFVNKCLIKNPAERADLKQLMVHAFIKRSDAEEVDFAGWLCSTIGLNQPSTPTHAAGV
- experimental_details: ELISA
- particulars: compound 0.02 µM
measured_property: inhibition (%)

| mol_smiles | measured_property | endpoint_value |
| --- | --- | --- |
| CNC(=O)c1cc(Oc2ccc(NC(=O)Nc3ccc(Cl)c(C(F)(F)F)c3)cc2)ccn1 | inhibition | 13.7 |
| COc1cc2c(Oc3ccc4[nH]c(C)cc4c3F)ncnc2cc1OCCCN1CCCC1 | inhibition | -0.6 |
| Cc1ccc(Nc2nccc(N(C)c3ccc4c(C)n(C)nc4c3)n2)cc1S(N)(=O)=O | inhibition | -3.2 |
| CNC(=O)c1ccccc1Sc1ccc2c(/C=C/c3ccccn3)n[nH]c2c1 | inhibition | -1.3 |

###

Some molecules, each annotated with its measured inhibition.
- target_entity: MST1R (human)
- experimental_details: Caliper, Mobility shift assay off-chip
- particulars: compound 0.2 µM

| mol_smiles | inhibition, % |
| --- | --- |
| CNC(=O)c1cc(Oc2ccc(NC(=O)Nc3ccc(Cl)c(C(F)(F)F)c3)cc2)ccn1 | 5.3 |
| COc1cc2c(Oc3ccc4[nH]c(C)cc4c3F)ncnc2cc1OCCCN1CCCC1 | 10.8 |
| Cc1ccc(Nc2nccc(N(C)c3ccc4c(C)n(C)nc4c3)n2)cc1S(N)(=O)=O | 4.9 |
| CCN(CC)CCNC(=O)c1c(C)[nH]c(/C=C2\C(=O)Nc3ccc(F)cc32)c1C | 6.4 |

###

- target_entity: UniProt P52564
- Sequence (P52564 whole entry, looked up): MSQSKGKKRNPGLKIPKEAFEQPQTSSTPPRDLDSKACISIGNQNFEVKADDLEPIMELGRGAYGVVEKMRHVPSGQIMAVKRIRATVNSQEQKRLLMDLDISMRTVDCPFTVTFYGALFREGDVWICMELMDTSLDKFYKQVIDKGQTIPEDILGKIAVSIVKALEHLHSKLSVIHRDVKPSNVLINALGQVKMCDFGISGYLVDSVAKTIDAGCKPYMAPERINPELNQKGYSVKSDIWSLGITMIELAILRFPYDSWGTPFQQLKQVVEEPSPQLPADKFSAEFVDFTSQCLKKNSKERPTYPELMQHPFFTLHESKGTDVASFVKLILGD
- experimental_details: ELISA
- particulars: compound 0.02 µM
Some compounds, each annotated with its measured inhibition.

| mol_smiles | unit_of_measurement | inhibition |
| --- | --- | --- |
| COc1cc2c(Oc3ccc4[nH]c(C)cc4c3F)ncnc2cc1OCCCN1CCCC1 | % | 2.8 |
| Cc1ccc(Nc2nccc(N(C)c3ccc4c(C)n(C)nc4c3)n2)cc1S(N)(=O)=O | % | 7.1 |
| CNC(=O)c1cc(Oc2ccc(NC(=O)Nc3ccc(Cl)c(C(F)(F)F)c3)cc2)ccn1 | % | 13.6 |
| CNC(=O)c1ccccc1Sc1ccc2c(/C=C/c3ccccn3)n[nH]c2c1 | % | 2.3 |

###

- target_entity: ROS1 (human) (UniProt P08922)
- Sequence (P08922 whole entry, looked up): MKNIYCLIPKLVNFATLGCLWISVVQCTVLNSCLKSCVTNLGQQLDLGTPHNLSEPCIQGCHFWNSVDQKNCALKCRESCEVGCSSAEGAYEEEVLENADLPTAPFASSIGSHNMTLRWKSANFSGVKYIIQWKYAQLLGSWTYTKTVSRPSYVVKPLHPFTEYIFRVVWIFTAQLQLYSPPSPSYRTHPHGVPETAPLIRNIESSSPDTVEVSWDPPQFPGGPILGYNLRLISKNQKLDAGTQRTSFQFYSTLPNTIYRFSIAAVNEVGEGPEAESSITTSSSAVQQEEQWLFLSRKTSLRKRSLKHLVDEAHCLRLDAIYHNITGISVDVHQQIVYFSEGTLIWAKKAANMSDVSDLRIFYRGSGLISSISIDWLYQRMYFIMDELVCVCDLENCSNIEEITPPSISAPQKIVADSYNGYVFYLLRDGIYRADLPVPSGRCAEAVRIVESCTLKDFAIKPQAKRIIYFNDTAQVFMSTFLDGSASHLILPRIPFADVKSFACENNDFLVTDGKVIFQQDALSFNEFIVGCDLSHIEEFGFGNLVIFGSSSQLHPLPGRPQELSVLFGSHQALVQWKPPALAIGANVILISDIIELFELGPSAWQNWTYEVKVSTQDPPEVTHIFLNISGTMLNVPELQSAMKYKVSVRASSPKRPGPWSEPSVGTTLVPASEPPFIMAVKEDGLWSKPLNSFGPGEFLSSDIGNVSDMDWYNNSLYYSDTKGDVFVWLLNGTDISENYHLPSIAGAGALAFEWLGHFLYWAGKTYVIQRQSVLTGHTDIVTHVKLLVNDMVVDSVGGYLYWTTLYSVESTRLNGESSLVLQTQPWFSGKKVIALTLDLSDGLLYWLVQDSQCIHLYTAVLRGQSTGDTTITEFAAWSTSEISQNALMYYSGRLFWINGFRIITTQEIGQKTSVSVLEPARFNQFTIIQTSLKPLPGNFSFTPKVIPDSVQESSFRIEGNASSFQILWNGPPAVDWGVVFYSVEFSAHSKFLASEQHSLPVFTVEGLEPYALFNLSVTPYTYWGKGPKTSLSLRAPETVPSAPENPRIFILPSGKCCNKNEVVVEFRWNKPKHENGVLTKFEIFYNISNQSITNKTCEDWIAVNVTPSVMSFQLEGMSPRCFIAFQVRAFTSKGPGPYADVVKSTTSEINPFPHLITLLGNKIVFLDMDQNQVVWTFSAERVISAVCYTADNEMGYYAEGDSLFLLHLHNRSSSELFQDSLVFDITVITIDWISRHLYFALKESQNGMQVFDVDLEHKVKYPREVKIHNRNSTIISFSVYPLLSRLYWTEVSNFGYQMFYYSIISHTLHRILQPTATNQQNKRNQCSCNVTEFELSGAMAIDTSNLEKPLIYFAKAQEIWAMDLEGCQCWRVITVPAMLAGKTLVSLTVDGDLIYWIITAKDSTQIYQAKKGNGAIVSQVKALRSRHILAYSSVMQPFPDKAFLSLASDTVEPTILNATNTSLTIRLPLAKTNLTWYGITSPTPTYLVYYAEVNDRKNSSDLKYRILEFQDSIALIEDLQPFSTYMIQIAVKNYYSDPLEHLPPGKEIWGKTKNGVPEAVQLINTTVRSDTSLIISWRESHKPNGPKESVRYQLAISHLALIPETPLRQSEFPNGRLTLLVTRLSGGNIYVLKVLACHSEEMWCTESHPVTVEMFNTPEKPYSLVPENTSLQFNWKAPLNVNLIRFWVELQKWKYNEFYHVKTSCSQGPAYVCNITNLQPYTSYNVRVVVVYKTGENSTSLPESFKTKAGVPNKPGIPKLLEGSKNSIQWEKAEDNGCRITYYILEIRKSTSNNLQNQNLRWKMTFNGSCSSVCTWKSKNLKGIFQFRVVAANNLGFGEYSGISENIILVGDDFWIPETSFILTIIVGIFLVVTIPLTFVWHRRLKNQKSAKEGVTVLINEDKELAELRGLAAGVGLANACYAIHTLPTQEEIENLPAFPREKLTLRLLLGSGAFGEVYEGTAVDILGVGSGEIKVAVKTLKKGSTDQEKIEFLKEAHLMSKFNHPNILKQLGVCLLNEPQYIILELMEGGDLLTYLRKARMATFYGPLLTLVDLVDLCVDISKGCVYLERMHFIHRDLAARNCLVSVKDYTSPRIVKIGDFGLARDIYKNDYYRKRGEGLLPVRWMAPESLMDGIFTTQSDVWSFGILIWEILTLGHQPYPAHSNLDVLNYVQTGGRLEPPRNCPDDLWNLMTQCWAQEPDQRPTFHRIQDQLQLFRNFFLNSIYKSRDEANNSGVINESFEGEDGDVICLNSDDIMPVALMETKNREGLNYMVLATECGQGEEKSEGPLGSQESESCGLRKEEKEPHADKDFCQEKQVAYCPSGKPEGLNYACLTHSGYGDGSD
- experimental_details: Caliper, Mobility shift assay off-chip
- particulars: compound 0.2 µM
Some compounds, each annotated with its measured inhibition.

| mol_smiles | target_entity | inhibition (%) |
| --- | --- | --- |
| Cc1ccc(Nc2nccc(N(C)c3ccc4c(C)n(C)nc4c3)n2)cc1S(N)(=O)=O | ROS1 (human) (UniProt P08922) | 69.7 |
| COc1cc2c(Oc3ccc4[nH]c(C)cc4c3F)ncnc2cc1OCCCN1CCCC1 | ROS1 (human) (UniProt P08922) | 0.4 |
| CNC(=O)c1cc(Oc2ccc(NC(=O)Nc3ccc(Cl)c(C(F)(F)F)c3)cc2)ccn1 | ROS1 (human) (UniProt P08922) | 1.3 |
| CCN(CC)CCNC(=O)c1c(C)[nH]c(/C=C2\C(=O)Nc3ccc(F)cc32)c1C | ROS1 (human) (UniProt P08922) | 18.4 |

###

- target_entity: CDK4 (human)
- experimental_details: Caliper, Mobility shift assay off-chip
- particulars: compound 0.2 µM
Some molecules, each annotated with its measured inhibition.

| mol_smiles | inhibition, % |
| --- | --- |
| Cc1ccc(Nc2nccc(N(C)c3ccc4c(C)n(C)nc4c3)n2)cc1S(N)(=O)=O | 13.2 |
| CNC(=O)c1cc(Oc2ccc(NC(=O)Nc3ccc(Cl)c(C(F)(F)F)c3)cc2)ccn1 | -2.5 |
| CCN(CC)CCNC(=O)c1c(C)[nH]c(/C=C2\C(=O)Nc3ccc(F)cc32)c1C | 16.6 |
| COc1cc2c(Oc3ccc4[nH]c(C)cc4c3F)ncnc2cc1OCCCN1CCCC1 | 7.2 |

###

- target_entity: EPHA4 (human) (UniProt P54764)
- experimental_details: Caliper, Mobility shift assay off-chip
- particulars: compound 0.2 µM

| mol_smiles | inhibition, % |
| --- | --- |
| Cc1ccc(Nc2nccc(N(C)c3ccc4c(C)n(C)nc4c3)n2)cc1S(N)(=O)=O | 0.2 |
| COc1cc2c(Oc3ccc4[nH]c(C)cc4c3F)ncnc2cc1OCCCN1CCCC1 | -2.4 |
| CCN(CC)CCNC(=O)c1c(C)[nH]c(/C=C2\C(=O)Nc3ccc(F)cc32)c1C | 2.1 |
| CNC(=O)c1cc(Oc2ccc(NC(=O)Nc3ccc(Cl)c(C(F)(F)F)c3)cc2)ccn1 | 22 |

###

- target_entity: CSNK1A1 (human) (UniProt P48729)
- Sequence (P48729 whole entry, looked up): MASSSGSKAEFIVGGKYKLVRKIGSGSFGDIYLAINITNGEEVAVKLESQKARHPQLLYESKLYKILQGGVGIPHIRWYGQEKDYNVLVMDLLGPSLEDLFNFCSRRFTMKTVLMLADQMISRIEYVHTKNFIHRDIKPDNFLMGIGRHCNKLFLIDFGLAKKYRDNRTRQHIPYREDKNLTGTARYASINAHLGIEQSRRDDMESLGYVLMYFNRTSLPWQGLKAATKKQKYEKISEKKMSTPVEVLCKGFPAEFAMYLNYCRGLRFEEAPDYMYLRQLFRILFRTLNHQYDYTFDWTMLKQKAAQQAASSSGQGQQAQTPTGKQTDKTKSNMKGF
- experimental_details: Caliper, Mobility shift assay off-chip
- particulars: compound 0.02 µM

| mol_smiles | target_entity | unit_of_measurement | inhibition |
| --- | --- | --- | --- |
| Cc1ccc(Nc2nccc(N(C)c3ccc4c(C)n(C)nc4c3)n2)cc1S(N)(=O)=O | CSNK1A1 (human) (UniProt P48729) | % | -4.9 |
| COc1cc2c(Oc3ccc4[nH]c(C)cc4c3F)ncnc2cc1OCCCN1CCCC1 | CSNK1A1 (human) (UniProt P48729) | % | -5.9 |
| CNC(=O)c1ccccc1Sc1ccc2c(/C=C/c3ccccn3)n[nH]c2c1 | CSNK1A1 (human) (UniProt P48729) | % | -7.8 |
| CNC(=O)c1cc(Oc2ccc(NC(=O)Nc3ccc(Cl)c(C(F)(F)F)c3)cc2)ccn1 | CSNK1A1 (human) (UniProt P48729) | % | -4.6 |

###

Some compounds, each annotated with its measured inhibition.
- target_entity: PRKG2 (human)
- experimental_details: Caliper, Mobility shift assay off-chip
- particulars: compound 0.02 µM
measured_property: inhibition

| mol_smiles | endpoint_value |
| --- | --- |
| CNC(=O)c1ccccc1Sc1ccc2c(/C=C/c3ccccn3)n[nH]c2c1 | -6% |
| CNC(=O)c1cc(Oc2ccc(NC(=O)Nc3ccc(Cl)c(C(F)(F)F)c3)cc2)ccn1 | -4.4% |
| Cc1ccc(Nc2nccc(N(C)c3ccc4c(C)n(C)nc4c3)n2)cc1S(N)(=O)=O | -2.3% |
| COc1cc2c(Oc3ccc4[nH]c(C)cc4c3F)ncnc2cc1OCCCN1CCCC1 | -2.4% |

###

- target_entity: MELK (human)
- experimental_details: Caliper, Mobility shift assay off-chip
- particulars: compound 0.02 µM

| mol_smiles | inhibition / % |
| --- | --- |
| CNC(=O)c1cc(Oc2ccc(NC(=O)Nc3ccc(Cl)c(C(F)(F)F)c3)cc2)ccn1 | -4.3 |
| Cc1ccc(Nc2nccc(N(C)c3ccc4c(C)n(C)nc4c3)n2)cc1S(N)(=O)=O | 8.1 |
| COc1cc2c(Oc3ccc4[nH]c(C)cc4c3F)ncnc2cc1OCCCN1CCCC1 | 6.6 |
| CNC(=O)c1ccccc1Sc1ccc2c(/C=C/c3ccccn3)n[nH]c2c1 | 0.9 |

###

- target_entity: TEK (human)
- experimental_details: Caliper, Mobility shift assay off-chip
- particulars: compound 0.2 µM
measured_property: inhibition

| mol_smiles | endpoint_value |
| --- | --- |
| COc1cc2c(Oc3ccc4[nH]c(C)cc4c3F)ncnc2cc1OCCCN1CCCC1 | 48.5% |
| Cc1ccc(Nc2nccc(N(C)c3ccc4c(C)n(C)nc4c3)n2)cc1S(N)(=O)=O | 2.7% |
| CNC(=O)c1cc(Oc2ccc(NC(=O)Nc3ccc(Cl)c(C(F)(F)F)c3)cc2)ccn1 | 9.5% |
| CCN(CC)CCNC(=O)c1c(C)[nH]c(/C=C2\C(=O)Nc3ccc(F)cc32)c1C | -3.6% |

###

Some molecules, each annotated with its measured inhibition.
- target_entity: PAK6 (human) (UniProt Q9NQU5)
- Sequence (Q9NQU5 whole entry, looked up): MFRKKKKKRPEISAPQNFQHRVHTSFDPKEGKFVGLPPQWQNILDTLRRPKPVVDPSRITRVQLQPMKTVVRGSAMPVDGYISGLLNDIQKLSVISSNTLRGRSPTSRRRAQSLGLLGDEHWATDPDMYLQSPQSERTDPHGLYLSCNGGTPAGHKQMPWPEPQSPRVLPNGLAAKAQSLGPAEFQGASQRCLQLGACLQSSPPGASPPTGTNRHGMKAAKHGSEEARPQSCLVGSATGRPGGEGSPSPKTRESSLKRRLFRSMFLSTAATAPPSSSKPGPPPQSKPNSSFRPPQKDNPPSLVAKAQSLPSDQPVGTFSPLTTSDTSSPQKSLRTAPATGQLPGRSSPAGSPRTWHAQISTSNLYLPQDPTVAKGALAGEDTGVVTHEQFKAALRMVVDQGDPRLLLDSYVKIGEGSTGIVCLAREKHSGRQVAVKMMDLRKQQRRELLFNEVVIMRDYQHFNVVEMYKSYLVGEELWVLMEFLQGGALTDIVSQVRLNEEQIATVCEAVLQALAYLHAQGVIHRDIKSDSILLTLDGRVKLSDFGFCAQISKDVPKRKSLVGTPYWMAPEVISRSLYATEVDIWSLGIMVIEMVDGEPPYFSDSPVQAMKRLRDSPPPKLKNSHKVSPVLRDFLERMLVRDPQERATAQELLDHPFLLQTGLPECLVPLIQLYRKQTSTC
- experimental_details: Caliper, Mobility shift assay off-chip
- particulars: compound 0.2 µM
measured_property: inhibition

| mol_smiles | endpoint_value |
| --- | --- |
| Cc1ccc(Nc2nccc(N(C)c3ccc4c(C)n(C)nc4c3)n2)cc1S(N)(=O)=O | -5.8% |
| CNC(=O)c1cc(Oc2ccc(NC(=O)Nc3ccc(Cl)c(C(F)(F)F)c3)cc2)ccn1 | -32.1% |
| CCN(CC)CCNC(=O)c1c(C)[nH]c(/C=C2\C(=O)Nc3ccc(F)cc32)c1C | 6% |
| COc1cc2c(Oc3ccc4[nH]c(C)cc4c3F)ncnc2cc1OCCCN1CCCC1 | -4.9% |

###

- target_entity: UniProt:Q14680
- Sequence (Q14680 whole entry, looked up): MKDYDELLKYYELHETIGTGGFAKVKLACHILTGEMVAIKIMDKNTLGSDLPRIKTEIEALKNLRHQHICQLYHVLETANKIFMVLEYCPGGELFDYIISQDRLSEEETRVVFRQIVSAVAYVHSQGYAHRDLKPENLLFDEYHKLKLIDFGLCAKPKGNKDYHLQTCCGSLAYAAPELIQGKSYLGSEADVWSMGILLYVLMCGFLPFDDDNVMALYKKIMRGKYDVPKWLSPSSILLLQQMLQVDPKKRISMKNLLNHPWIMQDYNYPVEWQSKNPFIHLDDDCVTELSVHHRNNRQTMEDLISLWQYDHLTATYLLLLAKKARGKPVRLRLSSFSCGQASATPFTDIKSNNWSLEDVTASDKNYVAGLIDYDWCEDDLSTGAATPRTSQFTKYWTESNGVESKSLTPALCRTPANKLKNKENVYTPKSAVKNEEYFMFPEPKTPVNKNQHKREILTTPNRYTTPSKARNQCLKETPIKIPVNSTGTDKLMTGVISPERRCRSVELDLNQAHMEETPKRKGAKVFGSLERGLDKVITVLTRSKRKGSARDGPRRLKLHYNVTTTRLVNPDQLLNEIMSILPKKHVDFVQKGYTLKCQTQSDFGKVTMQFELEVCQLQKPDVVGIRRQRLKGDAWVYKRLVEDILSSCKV
- experimental_details: Caliper, Mobility shift assay off-chip
- particulars: compound 0.2 µM

| mol_smiles | unit_of_measurement | inhibition |
| --- | --- | --- |
| Cc1ccc(Nc2nccc(N(C)c3ccc4c(C)n(C)nc4c3)n2)cc1S(N)(=O)=O | % | 12.4 |
| COc1cc2c(Oc3ccc4[nH]c(C)cc4c3F)ncnc2cc1OCCCN1CCCC1 | % | 10 |
| CNC(=O)c1cc(Oc2ccc(NC(=O)Nc3ccc(Cl)c(C(F)(F)F)c3)cc2)ccn1 | % | -1.1 |
| CCN(CC)CCNC(=O)c1c(C)[nH]c(/C=C2\C(=O)Nc3ccc(F)cc32)c1C | % | 80 |
